All figures here come from patent US8222219B2.

target: human SGLT2 (Homo sapiens, UniProt P31639); construct: expressed in transfected cells; host or cells: CHOK1 (CHO-K1) cells, kept under Geneticin selection; assay: Assay for SGLT2 inhibition (14C-AMG uptake in CHOK1 cells expressing human SGLT2); assay type: cell-based; settings: CHOK1 cells expressing human SGLT2; 14C-AMG uptake 0.5 mM, 2 hours at 37° C.; read-out: IC50
Sequence (P31639 whole entry): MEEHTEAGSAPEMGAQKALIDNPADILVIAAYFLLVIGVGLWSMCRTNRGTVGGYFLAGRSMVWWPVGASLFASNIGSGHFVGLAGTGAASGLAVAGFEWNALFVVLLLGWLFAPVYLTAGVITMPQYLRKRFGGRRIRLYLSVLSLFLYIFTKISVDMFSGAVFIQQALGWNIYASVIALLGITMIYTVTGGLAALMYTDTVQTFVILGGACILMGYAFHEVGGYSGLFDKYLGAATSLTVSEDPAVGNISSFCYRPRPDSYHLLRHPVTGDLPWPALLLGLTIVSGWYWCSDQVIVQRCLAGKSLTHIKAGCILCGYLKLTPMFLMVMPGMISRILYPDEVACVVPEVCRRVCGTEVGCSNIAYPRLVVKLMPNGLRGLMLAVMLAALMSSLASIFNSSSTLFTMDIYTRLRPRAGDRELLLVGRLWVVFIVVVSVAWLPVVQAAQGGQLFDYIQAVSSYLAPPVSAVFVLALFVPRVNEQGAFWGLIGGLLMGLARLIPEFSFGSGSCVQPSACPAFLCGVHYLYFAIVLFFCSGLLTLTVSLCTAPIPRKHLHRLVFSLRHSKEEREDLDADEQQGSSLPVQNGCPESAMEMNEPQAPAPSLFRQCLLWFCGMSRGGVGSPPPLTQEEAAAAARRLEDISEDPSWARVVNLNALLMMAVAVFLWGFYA
Endpoint Label: IC50 (nM)

* Cc1ccc([C@@H]2O[C@H](CO)[C@@H](O)[C@H](O)[C@H]2O)cc1Cc1ccc(-c2ccc(F)c(C#N)c2)s1 | 5.6
* O=Cc1ccc(-c2ccc(Cc3cc([C@@H]4O[C@H](CO)[C@@H](O)[C@H](O)[C@H]4O)ccc3Cl)s2)cc1 | 4.3
* CCOc1cccc(-c2ccc(Cc3cc([C@@H]4O[C@H](CO)[C@@H](O)[C@H](O)[C@H]4O)ccc3Cl)s2)c1 | 4.6
* COc1c(Cc2ccc(-c3cccc(F)n3)s2)cc([C@@H]2O[C@H](CO)[C@@H](O)[C@H](O)[C@H]2O)c2ccccc12 | 2.5

A. COc1c(Cc2ccc(-c3ccccc3)s2)cc([C@@H]2O[C@H](CO)[C@@H](O)[C@H](O)[C@H]2O)c2ccccc12
B. Cc1ccc([C@@H]2O[C@H](CO)[C@@H](O)[C@H](O)[C@H]2O)cc1Cc1ccc(-c2ccc(F)c(F)c2)s1
C. OCc1ccc(-c2ccc(Cc3cc([C@@H]4O[C@H](CO)[C@@H](O)[C@H](O)[C@H]4O)ccc3Cl)s2)cc1
Sort ascending by IC50. // rank by listing labels in the order requested
C, A, B

---

molecular target: human SGLT2 (Homo sapiens); construct: expressed in transfected cells; host or cells: CHOK1 (CHO-K1) cells, kept under Geneticin selection; test: Assay for SGLT2 inhibition (14C-AMG uptake in CHOK1 cells expressing human SGLT2); assay type: cell-based; conditions: CHOK1 cells expressing human SGLT2; 14C-AMG uptake 0.5 mM, 2 hours at 37° C.; read-out: IC50
pIC50: −log10 of the molar value.
Endpoint Label: pIC50

Solved cases (5 shown):
- NC(=O)c1ccc(-c2ccc(Cc3cc([C@@H]4O[C@H](CO)[C@@H](O)[C@H](O)[C@H]4O)ccc3Cl)s2)cc1: 9.05
- COc1cccc(-c2ccc(Cc3cc([C@@H]4O[C@H](CO)[C@@H](O)[C@H](O)[C@H]4O)ccc3C)s2)n1: 8.62
- OC[C@H]1O[C@@H](c2ccc(Cl)c(Cc3ccc(-c4ncco4)s3)c2)[C@H](O)[C@@H](O)[C@@H]1O: 8.92
- N#Cc1ccc(-c2ccc(Cc3cc([C@@H]4O[C@H](CO)[C@@H](O)[C@H](O)[C@H]4O)ccc3Cl)s2)cn1: 8.37
- Cc1ccc([C@@H]2O[C@H](CO)[C@@H](O)[C@H](O)[C@H]2O)cc1Cc1ccc(-n2cccn2)s1: 8.49

P. CCOC(=O)c1ccc(-c2ccc(Cc3cc([C@@H]4O[C@H](CO)[C@@H](O)[C@H](O)[C@H]4O)ccc3Cl)s2)cc1
Q. Cc1ccc([C@@H]2O[C@H](CO)[C@@H](O)[C@H](O)[C@H]2O)cc1Cc1ccc(-c2ccc(OC(F)F)cc2)s1
Kindly compare P with Q and tell me which has the lower pIC50 figure. Select an item and report its label.
P
(P: 8.11, Q: 8.55)

I. CCOc1ccc2sc(Cc3cc([C@@H]4O[C@H](CO)[C@@H](O)[C@H](O)[C@H]4O)ccc3C)cc2c1
II. Cc1ccc([C@@H]2O[C@H](CO)[C@@H](O)[C@H](O)[C@H]2O)cc1Cc1ccc(-c2ccc(C#N)c(F)c2)s1
III. N#Cc1cccc(-c2ccc(Cc3cc([C@@H]4O[C@H](CO)[C@@H](O)[C@H](O)[C@H]4O)ccc3Cl)s2)c1
Rank the 3 compounds: largest pIC50 first, smallest last. // rank by listing labels in the order requested
III, I, II
(III: 8.85, I: 8.46, II: 8.17)

A. Cc1ccc([C@@H]2O[C@H](CO)[C@@H](O)[C@H](O)[C@H]2O)cc1Cc1ccc(-c2cccc(N(C)C)c2)s1
B. COc1cccc(-c2ccc(Cc3cc([C@@H]4O[C@H](CO)[C@@H](O)[C@H](O)[C@H]4O)ccc3Cl)s2)n1
Kindly compare A with B and tell me which has the lower pIC50 figure. Select an item and report its label.
A
(A: 8.09, B: 8.46)

a. COc1c(Cc2ccc(-c3ncccn3)s2)cc([C@@H]2O[C@H](CO)[C@@H](O)[C@H](O)[C@H]2O)c2ccccc12
b. Cc1ccc([C@@H]2O[C@H](CO)[C@@H](O)[C@H](O)[C@H]2O)cc1Cc1ccc(-c2ncco2)s1
# returns the entry with the larger pIC50; inputs a and b Select an item and report its label.
b

1. OC[C@H]1O[C@@H](c2ccc(Cl)c(Cc3ccc(-c4ccc(F)nc4)s3)c2)[C@H](O)[C@@H](O)[C@@H]1O
2. COc1ccc(-c2ccc(Cc3cc([C@@H]4O[C@H](CO)[C@@H](O)[C@H](O)[C@H]4O)ccc3Cl)s2)cn1
3. Cc1ccc([C@@H]2O[C@H](CO)[C@@H](O)[C@H](O)[C@H]2O)cc1Cc1ccc(-c2cccc(F)c2)s1
Sort ascending by pIC50. // rank by listing labels in the order requested
2, 1, 3

I. CCOc1ccc(-c2ccc(Cc3cc([C@@H]4O[C@H](CO)[C@@H](O)[C@H](O)[C@H]4O)ccc3C)s2)cc1
II. Cc1ccc([C@@H]2O[C@H](CO)[C@@H](O)[C@H](O)[C@H]2O)cc1Cc1ccc(-c2cccc(C(F)F)c2)s1
# returns the entry with the larger pIC50; inputs I and II Select an item and report its label.
II

---

target: human SGLT2 (Homo sapiens); construct: expressed in transfected cells; host or cells: CHOK1 (CHO-K1) cells, kept under Geneticin selection; experiment: Assay for SGLT2 inhibition (14C-AMG uptake in CHOK1 cells expressing human SGLT2); type: cell-based; conditions: CHOK1 cells expressing human SGLT2; 14C-AMG uptake 0.5 mM, 2 hours at 37° C.; read-out: IC50
Endpoint Label: IC50 (nM)

Solved cases (2 shown):
* COc1c(Cc2ccc(Cl)s2)cc([C@@H]2O[C@H](CO)[C@@H](O)[C@H](O)[C@H]2O)c2ccccc12 | 4.2
* Cc1ccc([C@@H]2O[C@H](CO)[C@@H](O)[C@H](O)[C@H]2O)cc1Cc1ccc(-c2ccc(F)nc2)s1 | 3.4

A. COc1ccc(-c2ccc(Cc3cc([C@@H]4O[C@H](CO)[C@@H](O)[C@H](O)[C@H]4O)ccc3C)s2)cc1
B. Cc1cccc(-c2ccc(Cc3cc([C@@H]4O[C@H](CO)[C@@H](O)[C@H](O)[C@H]4O)ccc3C)s2)c1
# returns the entry with the larger IC50; inputs A and B Select an item and report its label.
A
(A: 4.1 nM, B: 2.8 nM)
